Form field: pIC50 (one value per entry).
experimental target: human TRPV1 (Homo sapiens (Human), UniProt Q8NER1)
Sequence (Q8NER1 whole entry): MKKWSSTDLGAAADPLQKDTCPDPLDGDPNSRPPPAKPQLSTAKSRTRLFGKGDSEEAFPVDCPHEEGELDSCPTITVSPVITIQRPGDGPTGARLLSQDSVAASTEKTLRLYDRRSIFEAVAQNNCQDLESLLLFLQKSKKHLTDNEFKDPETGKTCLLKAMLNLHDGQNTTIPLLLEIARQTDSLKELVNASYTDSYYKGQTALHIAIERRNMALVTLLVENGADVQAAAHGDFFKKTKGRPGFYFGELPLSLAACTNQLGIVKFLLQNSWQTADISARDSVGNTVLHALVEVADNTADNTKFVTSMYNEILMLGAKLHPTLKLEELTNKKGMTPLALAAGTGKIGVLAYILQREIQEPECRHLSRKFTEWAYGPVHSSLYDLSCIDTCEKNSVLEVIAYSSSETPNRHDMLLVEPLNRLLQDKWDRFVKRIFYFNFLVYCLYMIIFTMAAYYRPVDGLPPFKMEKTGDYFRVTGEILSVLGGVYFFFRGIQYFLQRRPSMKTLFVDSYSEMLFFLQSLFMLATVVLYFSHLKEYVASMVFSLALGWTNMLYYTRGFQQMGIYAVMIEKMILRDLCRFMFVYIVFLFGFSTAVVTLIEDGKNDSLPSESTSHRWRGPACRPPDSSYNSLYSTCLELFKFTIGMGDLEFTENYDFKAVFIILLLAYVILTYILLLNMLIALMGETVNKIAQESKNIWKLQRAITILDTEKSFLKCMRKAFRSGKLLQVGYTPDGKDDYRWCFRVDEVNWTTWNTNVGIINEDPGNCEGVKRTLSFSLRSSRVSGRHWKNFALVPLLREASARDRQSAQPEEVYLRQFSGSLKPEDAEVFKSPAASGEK
assay details: Capsaicin Activation Assay (intracellular Ca2+, FLIPR)
Format: cell-based
test context: recombinant HEK293 cells expressing hTRPV1, 50 nM capsaicin
Please keep in mind that pIC50 is minus log10 of the molar concentration; only the number is needed.

Some solved entries appear below for comparison.
[
  {
    "compound": "CN1C(=O)CCc2ccc(NC(=O)N[C@@H]3C[C@@](C)(CF)Oc4cc(C(F)(F)F)ccc43)cc21 [Example 289]",
    "test result": 6.64
  },
  {
    "compound": "CN1C(=O)NCc2c(NC(=O)N[C@@H]3C[C@](C)(C(F)F)Oc4cc(Cl)ccc43)cccc21 [Example 10]",
    "test result": 7.77
  },
  {
    "compound": "CN1Cc2ccc(NC(=O)N[C@H]3CC(C)(C)Oc4ccc(F)cc43)cc2NC1=O [Example 204]",
    "test result": 5.80
  },
  {
    "compound": "C[C@]1(C(F)F)C[C@@H](NC(=O)Nc2ccc3c(c2)NC(=O)N(CCO)C3)c2ccccc2O1 [Example 60]",
    "test result": 5.89
  },
  {
    "compound": "CN1C(=O)CCc2ccc(NC(=O)N[C@H]3CC(C)(C)Oc4ccc(F)cc43)cc21 [Example 287]",
    "test result": 4.89
  }
]

Ask: Short answer please: pIC50, human TRPV1 (Homo sapiens (Human), UniProt Q8NER1), entry CC1(C)C[C@@H](NC(=O)Nc2ccc3c(c2)NC(=O)N(CCO)C3)c2cccc(C(F)(F)F)c2O1 [Example 307]
Result: 5.89

Ask: How about this compound: CC1(C)C[C@@H](NC(=O)Nc2ccc3c(c2)NC(=O)CO3)c2cc(F)ccc2O1 [Example 113]
Result: 6.11
